Known pIC50 of a selection of compounds
measured on: HDAC1 (Homo sapiens (Human), UniProt Q13547)
Sequence (Q13547 whole entry): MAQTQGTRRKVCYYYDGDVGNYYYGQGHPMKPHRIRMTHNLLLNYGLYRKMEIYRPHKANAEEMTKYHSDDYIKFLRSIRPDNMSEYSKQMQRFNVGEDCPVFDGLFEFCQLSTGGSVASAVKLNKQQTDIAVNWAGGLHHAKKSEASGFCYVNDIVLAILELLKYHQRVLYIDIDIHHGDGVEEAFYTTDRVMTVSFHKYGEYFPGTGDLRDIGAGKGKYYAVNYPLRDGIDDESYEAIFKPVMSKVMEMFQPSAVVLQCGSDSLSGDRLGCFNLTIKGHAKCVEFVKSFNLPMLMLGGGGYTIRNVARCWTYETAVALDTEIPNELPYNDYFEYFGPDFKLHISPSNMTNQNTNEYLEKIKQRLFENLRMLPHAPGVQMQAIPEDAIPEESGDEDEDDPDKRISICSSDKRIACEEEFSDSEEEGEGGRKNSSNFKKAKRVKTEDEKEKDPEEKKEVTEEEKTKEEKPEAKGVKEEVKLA
assay details: HDAC1 enzymatic assay
Type: biochemical
test conditions: read-out: Human HDAC1 IC50
pIC50: −log10 of the molar value.

CS(=O)(=O)NCC(Nc1ncc(-c2nnc(C(F)F)o2)cn1)c1ccc(F)cc1F (single isomer, unassigned) [103(−)] :: < 4.52
CCS(=O)(=O)N(CC(Nc1ncc(-c2nnc(C(F)F)o2)cn1)c1ccc(OC(F)F)cc1F)CC(F)(F)F (stereo not drawn) [149(+)] :: < 4.52
Fc1cccc(C2(Nc3ncc(-c4nnc(C(F)F)o4)cn3)CC2)c1F [Example 60] :: < 4.52

Lab note: compound Fc1ccc(C2(Nc3ncc(-c4nnc(C(F)F)o4)cn3)CC2)cc1 [Example 5] tested on HDAC1 (Homo sapiens (Human), UniProt Q13547); recorded pIC50 was < 4.00

Lab note: compound CS(=O)(=O)Nc1cccc(CC(Nc2ncc(-c3nnc(C(F)F)o3)cn2)c2ccc(F)cc2)c1 (stereo not shown) [Example 132] tested on HDAC1 (Homo sapiens (Human), UniProt Q13547); recorded pIC50 was < 4.52

Lab note: compound CC(C)S(=O)(=O)NCC(Nc1ncc(-c2nnc(C(F)F)o2)cn1)c1ccc(F)cc1 (stereo not shown) [Example 109] tested on HDAC1 (Homo sapiens (Human), UniProt Q13547); recorded pIC50 was < 4.52

Lab note: compound O=S1(=O)CCCN1CC(Nc1ncc(-c2nnc(C(F)F)o2)cn1)c1ccc(F)cc1 (single isomer, unassigned; (-)) [120(−)] tested on HDAC1 (Homo sapiens (Human), UniProt Q13547); recorded pIC50 was < 4.52

* * *

Known pIC50 of a selection of molecules
measured on: HDAC6 (Homo sapiens (Human), UniProt Q9UBN7)
Sequence (Q9UBN7 whole entry): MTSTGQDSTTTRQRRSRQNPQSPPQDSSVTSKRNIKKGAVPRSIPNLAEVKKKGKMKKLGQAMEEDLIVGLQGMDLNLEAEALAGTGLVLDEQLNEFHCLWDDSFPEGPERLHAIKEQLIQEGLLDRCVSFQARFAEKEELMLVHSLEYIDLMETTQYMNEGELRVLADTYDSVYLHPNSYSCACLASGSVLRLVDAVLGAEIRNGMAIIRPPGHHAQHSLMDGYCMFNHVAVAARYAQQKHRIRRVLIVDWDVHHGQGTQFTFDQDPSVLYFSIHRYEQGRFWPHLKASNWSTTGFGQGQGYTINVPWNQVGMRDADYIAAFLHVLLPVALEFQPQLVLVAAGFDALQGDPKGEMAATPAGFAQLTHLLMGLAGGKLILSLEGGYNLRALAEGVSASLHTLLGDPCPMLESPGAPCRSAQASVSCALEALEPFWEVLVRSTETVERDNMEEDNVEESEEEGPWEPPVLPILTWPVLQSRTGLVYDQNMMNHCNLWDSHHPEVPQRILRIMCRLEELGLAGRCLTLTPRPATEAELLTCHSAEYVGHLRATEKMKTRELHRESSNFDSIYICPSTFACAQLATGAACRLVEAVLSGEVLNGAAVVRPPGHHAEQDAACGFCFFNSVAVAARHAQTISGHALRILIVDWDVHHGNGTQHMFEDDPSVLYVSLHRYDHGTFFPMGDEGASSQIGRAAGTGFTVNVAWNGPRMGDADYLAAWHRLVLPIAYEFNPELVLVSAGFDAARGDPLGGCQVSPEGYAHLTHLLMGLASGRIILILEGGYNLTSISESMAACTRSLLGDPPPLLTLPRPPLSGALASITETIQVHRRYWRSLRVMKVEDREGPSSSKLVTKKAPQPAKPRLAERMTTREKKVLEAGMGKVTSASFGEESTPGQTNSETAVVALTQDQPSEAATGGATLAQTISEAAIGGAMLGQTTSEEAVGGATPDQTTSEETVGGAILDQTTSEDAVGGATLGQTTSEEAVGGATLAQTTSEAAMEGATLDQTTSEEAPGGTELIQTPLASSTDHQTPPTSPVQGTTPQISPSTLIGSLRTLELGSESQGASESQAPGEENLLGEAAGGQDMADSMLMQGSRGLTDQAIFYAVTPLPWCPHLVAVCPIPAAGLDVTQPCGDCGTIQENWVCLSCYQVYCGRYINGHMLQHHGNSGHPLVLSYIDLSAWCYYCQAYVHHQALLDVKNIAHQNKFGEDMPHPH
assay details: HDAC6 enzymatic assay
Format: biochemical
test conditions: read-out: Human HDAC6 IC50
# pIC50 is unitless: minus log10 of the molar concentration; print number only

Fc1ccc(C(Cn2cnc(C(F)(F)F)c2)Nc2ncc(-c3nnc(C(F)F)o3)cn2)cc1 (single isomer, unassigned) [175(−)] :: 5.82
COCC(Nc1ncc(-c2nnc(C(F)F)o2)cn1)c1ccc(F)cc1 (stereo not shown) :: 7.11
CC(C)(Nc1ncc(-c2nnc(C(F)F)o2)cn1)c1c(F)cccc1F :: 7.80

GET /value?item= O=S(=O)(C1CC1)N(CC(Nc1ncc(-c2nnc(C(F)F)o2)cn1)c1ccc(F)cc1F)CC(F)(F)F (stereo not drawn) [144(+)] &field=pIC50 returns 6.80

GET /value?item= CS(=O)(=O)N(CC(Nc1ncc(-c2nnc(C(F)F)o2)cn1)c1ccc(F)cc1F)CC(F)(F)F (stereo not drawn) [138(+)] &field=pIC50 returns 7.12

* * *

Record: pIC50 reported on HDAC11 (Homo sapiens (Human), UniProt Q96DB2).
Sequence (Q96DB2 whole entry, species assumed): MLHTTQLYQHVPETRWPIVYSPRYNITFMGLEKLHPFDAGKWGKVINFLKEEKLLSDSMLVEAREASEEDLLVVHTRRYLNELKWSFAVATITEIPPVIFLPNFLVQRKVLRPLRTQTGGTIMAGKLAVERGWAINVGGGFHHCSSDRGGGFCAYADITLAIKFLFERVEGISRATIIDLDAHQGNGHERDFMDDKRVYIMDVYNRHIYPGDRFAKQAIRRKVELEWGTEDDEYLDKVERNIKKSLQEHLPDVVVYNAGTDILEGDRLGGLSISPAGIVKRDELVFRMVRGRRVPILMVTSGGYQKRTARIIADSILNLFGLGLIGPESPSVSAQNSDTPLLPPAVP
pIC50: −log10 of the molar value.

Fc1cccc(F)c1C1(Nc2ncc(-c3nnc(C(F)F)o3)cn2)CC1 :: < 4.52
Fc1ccc(C2(Nc3ncc(-c4nnc(C(F)F)o4)cn3)CC2)cc1 :: < 4.52
CS(=O)(=O)NCC(Nc1ncc(-c2nnc(C(F)F)o2)cn1)c1ccc(OC(F)F)cc1 (single isomer, unassigned) [115(+)] :: < 4.52
CS(=O)(=O)N(CC(Nc1ncc(-c2nnc(C(F)F)o2)cn1)c1ccc(F)cc1)CC(F)(F)F (single isomer, unassigned) [118(+)] :: < 4.52

GET /value?item= CS(=O)(=O)NCC(Nc1ncc(-c2nnc(C(F)F)o2)cn1)c1ccc(F)cc1 (single isomer, unassigned) [38(+)] &field=pIC50 returns < 4.52

GET /value?item= CS(=O)(=O)CC(Nc1ncc(-c2nnc(C(F)F)o2)cn1)c1ccc(F)cc1 (single isomer, unassigned) [161(+)] &field=pIC50 returns < 4.52

GET /value?item= "FC(F)c1nnc(-c2cnc(NC3(c4ccccc4)CC3)nc2)o1" &field=pIC50 returns < 4.52

GET /value?item= O=C(NCC(Nc1ncc(-c2nnc(C(F)F)o2)cn1)c1ccc(F)cc1)C1CC1 (single isomer, unassigned) [168(+)] &field=pIC50 returns < 4.52

GET /value?item= CS(=O)(=O)NCC(Nc1ncc(-c2nnc(C(F)F)o2)cn1)c1ccc(OC(F)(F)F)cc1 (single isomer, unassigned) [122(+)] &field=pIC50 returns < 4.52

GET /value?item= "Fc1ccc(C2(Nc3ncc(-c4nnc(C(F)F)o4)cn3)CC2)c(Cl)c1" &field=pIC50 returns < 4.52

* * *

measured on: UniProtKB Q9UBN7
assay details: HDAC6 enzymatic assay
Type: biochemical
test conditions: read-out: Human HDAC6 IC50
attribute measured: pIC50
# pIC50 is unitless: minus log10 of the molar concentration; print number only

O=C(Nc1ccccc1)C(Nc1ncc(-c2nnc(C(F)F)o2)cn1)c1ccc(F)cc1 (centres unmarked) [Example 35] :: 6.77

GET /value?item= Fc1ccc(C(COC2CC2)Nc2ncc(-c3nnc(C(F)F)o3)cn2)c(F)c1 (single isomer, unassigned) [Example 134B] &field=pIC50 returns 7.21

GET /value?item= CC(Nc1ncc(-c2nnc(C(F)F)o2)cn1)c1ccc(F)cn1 (centres unmarked) [Example 31] &field=pIC50 returns 6.92

GET /value?item= CS(=O)(=O)N(CC(Nc1ncc(-c2nnc(C(F)F)o2)cn1)c1ccc(OC(F)F)cc1F)CC(F)(F)F (stereo not drawn) [146(+)] &field=pIC50 returns 6.85

* * *

measured on: HDAC6 (Homo sapiens (Human))
assay details: HDAC6 enzymatic assay
Format: biochemical
test conditions: read-out: Human HDAC6 IC50
Known IC50 of a selection of compounds
Expressed in nM, but write only the number.

Here's what some known entries look like.
Fc1ccc(-c2ccc(C3(Nc4ncc(-c5nnc(C(F)F)o5)cn4)CC3)cc2)cc1 [Example 16] :: 95
C[C@@H](Nc1ncc(-c2nnc(C(F)F)o2)cn1)c1ccc(F)cc1F [Example 99-R] :: 28
FC(F)c1nnc(-c2cnc(NC3(c4ccc(OCC(F)(F)F)cc4)CC3)nc2)o1 [Example 68] :: 100

GET /value?item= O=S(=O)(NCC(Nc1ncc(-c2nnc(C(F)F)o2)cn1)c1ccc(F)cc1)c1ccccc1 (stereo not shown) [Example 39] &field=IC50 returns 50

* * *

assay details: Mouse Pharmacokinetics, oral single dose
Assay type: in vivo, male Swiss Albino mice
test conditions: male, Swiss Albino, plasma, 5 mg/kg, formulation by footnote: a 20% CremEL in H20, b 1% CMC in water, c 2% DMSO, 0.2% Tween80, 97.8% of 1% CMC
attribute measured: log10(Cmax) (log10 of the value in ng/mL)
Form field - Quantity: Cmax; Unit: ng/mL; Scale: log10

Here's what some known entries look like.
O=S(=O)(NCC(Nc1ncc(-c2nnc(C(F)F)o2)cn1)c1ccc(F)cc1F)C1CC1 (stereo not drawn) [142(+)] :: 3.40
CS(=O)(=O)NCC(Nc1ncc(-c2nnc(C(F)F)o2)cn1)c1ccc(F)c(F)c1 (single isomer, unassigned) [171(+)] :: 3.41
CC(C)S(=O)(=O)NCC(Nc1ncc(-c2nnc(C(F)F)o2)cn1)c1ccc(F)cc1 (stereo not drawn) :: 2.83

GET /value?item= CS(=O)(=O)NCC(Nc1ncc(-c2nnc(C(F)F)o2)cn1)c1ccc(OC(F)(F)F)cc1 (single isomer, unassigned) [122(+)] &field=log10(Cmax) returns 3.47

GET /value?item= CS(=O)(=O)NCC(Nc1ncc(-c2nnc(C(F)F)o2)cn1)c1ccc(Cl)cc1 (single isomer, unassigned) [173(+)] &field=log10(Cmax) returns 3.45

GET /value?item= CS(=O)(=O)N(CC(Nc1ncc(-c2nnc(C(F)F)o2)cn1)c1ccc(F)cc1)CC(F)(F)F (single isomer, unassigned) [118(+)] &field=log10(Cmax) returns 2.84

GET /value?item= CN(CC(Nc1ncc(-c2nnc(C(F)F)o2)cn1)c1ccc(F)cc1)S(C)(=O)=O (single isomer, unassigned) [113(+)] &field=log10(Cmax) returns 3.13

GET /value?item= O=S(=O)(NCC(Nc1ncc(-c2nnc(C(F)F)o2)cn1)c1ccc(F)cc1)C1CC1 (stereo not drawn) &field=log10(Cmax) returns 2.92

GET /value?item= CS(=O)(=O)NCC(Nc1ncc(-c2nnc(C(F)F)o2)cn1)c1ccc(OC(F)F)cc1 (single isomer, unassigned) [115(+)] &field=log10(Cmax) returns 2.82

GET /value?item= O=S(=O)(NCC(Nc1ncc(-c2nnc(C(F)F)o2)cn1)c1ccc(OC(F)F)cc1F)C1CC1 (stereo not drawn) [150(+)] &field=log10(Cmax) returns 3.53

GET /value?item= CCS(=O)(=O)NCC(Nc1ncc(-c2nnc(C(F)F)o2)cn1)c1ccc(F)cc1 (stereo not drawn) &field=log10(Cmax) returns 3.33

* * *

measured on: HDAC6 (Homo sapiens (Human))
assay details: HDAC6 enzymatic assay
Format: biochemical
test conditions: read-out: Human HDAC6 IC50
attribute measured: pIC50
# pIC50 is unitless: minus log10 of the molar concentration; print number only

Here's what some known entries look like.
CS(=O)(=O)N(CC(Nc1ncc(-c2nnc(C(F)F)o2)cn1)c1ccc(F)cc1)CC(F)(F)F (stereo not shown) [Example 118] :: 7.14
CS(=O)(=O)NCC(Nc1ncc(-c2nnc(C(F)F)o2)cn1)c1ccc(F)cc1 (stereo not shown) [Example 38] :: 7.54
CCS(=O)(=O)N(C)CC(Nc1ncc(-c2nnc(C(F)F)o2)cn1)c1ccc(F)cc1F (stereo not drawn) [140(+)] :: 7.24
CC(NS(C)(=O)=O)C(Nc1ncc(-c2nnc(C(F)F)o2)cn1)c1ccc(F)cc1 (single isomer, unassigned) [Example 127A] :: 7.35
Fc1ccc2c(c1)CCCC2Nc1ncc(-c2nnc(C(F)F)o2)cn1 (stereo not shown) :: 6.10

GET /value?item= CS(=O)(=O)NCCC(Nc1ncc(-c2nnc(C(F)F)o2)cn1)c1ccc(F)cc1 (stereo not shown) &field=pIC50 returns 7.59
